Reference for the values: PubChem BioAssay (NCI)

Below, each entry is listed with its recorded growth.
# Test system: U251 CNS
# experimentNotes: NCI-60 one-dose screen, 48 h (100 = growth as untreated, 0 = no growth, -100 = all killed)
# assayConditions: 10 µM unless noted
The panel holds about 83,000 compounds, 20% with a hit somewhere; the sample as a whole holds those more often.
attributeMeasured: growth (%)

INSERT INTO results (molecule, systemname, unitstring, reportedmeasurement) VALUES
  ('COc1ccc(CNC(=O)c2c(C)n([O-])c3cc(F)c(F)cc3[n+]2=O)cc1', 'U251 CNS', '%', 94.9),
  ('COc1cc(/C=C/C(=O)CC(=O)/C=C/c2ccc(OC(=O)C3C4CC5CC(C4)CC3C5)c(OC)c2)ccc1OC(=O)C1C2CC3CC(C2)CC1C3 (stereo not drawn)', 'U251 CNS', '%', 111),
  ('O=[N+]([O-])c1ccc(N=Nc2c(Cl)cc(O)cc2Cl)cc1', 'U251 CNS', '%', 10),
  ('O=C1CSC(c2ccccc2O)N1c1nnc(Cn2ccnc2)o1 (stereo not drawn)', 'U251 CNS', '%', 66.6),
  ('C[C@H]1O[C@@H](O[C@H]2[C@@H](O)C[C@H](O[C@H]3[C@@H](O)C[C@H](O[C@H]4CC[C@]5(C)C6CC[C@]7(C)[C@@H](C8=CC(=O)OC8)CC[C@]7(O)C6CC[C@@H]5C4)O[C@@H]3C)O[C@@H]2C)C[C@H](O)[C@@H]1O (stereo partly drawn)', 'U251 CNS', '%', -100),
  ('Cc1ccc(C2=NNC(c3sc(Cl)nc3Cl)C2)cc1 (stereo not drawn)', 'U251 CNS', '%', 99.1),
  ('OCc1n(Cc2ccc3ccccc3c2)cc[n+]1Cc1ccc2ccccc2c1', 'U251 CNS', '%', 60),
  ('O=C1NC(=O)/C(=C\c2ccco2)S1', 'U251 CNS', '%', 101);
